Below, each of the compounds is paired with its reported growth inhibition value.
experiment: NCI Yeast Anticancer Drug Screen. Data for the bub3 strain (AID 167); settings: S. cerevisiae bub3 mutant strain, at 50.0 µM, stronger effect = higher value
This is part of a sample that, as a whole, favours compounds with a hit. Of some 79,000 tested, about 15% had one in any assay.
readout_label: growth inhibition (%)

compound	readout_label	measured_result
Cc1cc(N(CCC#N)CCC#N)ccc1/C(N=Nc1ccc([N+](=O)[O-])cc1)=N\NC(=O)c1cc(Cl)ccc1C(=O)c1ccccc1	growth inhibition	-22.4
N#Cc1ccc(S(=O)(=O)c2ccc(C#N)cc2)cc1	growth inhibition	12
OC(c1cc2ccccc2c2ccccc12)C1CCCCN1 (stereo unspecified)	growth inhibition	20
CCOC(=O)NC(C)(C)CC(C)(C)C	growth inhibition	-18.6
O=C1OI(OI2OC(=O)c3ccccc32)c2ccccc21 (tested in a mixture with another compound)	growth inhibition	17.9
CCCCCCCCCCCCCCCCOC(=O)c1cc([N+](=O)[O-])cc([N+](=O)[O-])c1Sc1ncnc2nc[nH]c12	growth inhibition	-21.2
O=C1NC2=NN=C(c3ccc(Br)cc3)CN2NC12c1ccccc1-c1ccccc12	growth inhibition	-14.2
Cc1c(C2(c3cc(C(C)C)c(O)c(CN(CC(=O)O)CC(=O)O)c3C)OS(=O)(=O)c3ccccc32)cc(C(C)C)c(O)c1CN(CC(=O)O)CC(=O)O	growth inhibition	2.8
COC(=O)CCC(=O)Nc1ccc(Cl)cc1C	growth inhibition	-60
Nc1ccc(S(=O)(=O)CCO)cc1	growth inhibition	-5.6
O=S(=O)(Nc1ccccc1C(O)c1ccccc1)c1ccccc1 (stereo unspecified)	growth inhibition	13.5
Cn1c(C(F)(F)F)nc2nc(Cl)c(Cl)nc21	growth inhibition	-32
CCOC(=O)NN(C(=O)OCC)c1c(C)cc(C)c(N(NC(=O)OCC)C(=O)OCC)c1C	growth inhibition	16.4
Nc1cccc(N=[N+]([O-])c2cccc(N)c2)c1	growth inhibition	12.2
O=c1c2cnc3c4cccnc4ccc3c2[nH]n1-c1ccccc1	growth inhibition	-9.85
COc1cc(C(=O)CCCC(=O)O)cc(OC)c1OC	growth inhibition	16.3
CC1(C)OC[C@@H](N)[C@@H](O)CO1	growth inhibition	0.55
C(=Nc1ccc2c(c1)Cc1ccccc1-2)c1ccc2c(c1)OCO2	growth inhibition	3.05
CC(=O)CC(=O)N1CCCCCCC1	growth inhibition	-23.2
CCCCC(CC)COC(=O)Cc1ccccc1 (stereo unspecified)	growth inhibition	40.1
CC(=NCCN(CCN=C(C)c1c(O)cc(C)oc1=O)CCN=C(C)c1c(O)cc(C)oc1=O)c1c(O)cc(C)oc1=O	growth inhibition	6.3

----------
Assay: NCI Yeast Anticancer Drug Screen. Data for the mec2-1 strain (AID 157)
Conditions: S. cerevisiae mec2-1 strain, at 50.0 µM
Experimental: Growth inhibition of yeast strains with defined genetic alterations is measured as a screen for potential anti-cancer activity. Selected strains with alterations in DNA damage repair or cell cycle control were exposed to compounds and growth inhibition was measured relative to vehicle treated controls. The strain used in this assay is mec2-1
This is part of a sample that, as a whole, favours compounds with a hit. Of some 79,000 tested, about 15% had one in any assay. Activity calls are given as the source filed them. No stated cut-off is given here; in the data, active means growth inhibition above about 70%; inactive means the rest.
Labels: T (active), F (inactive)

molecule	category_label
O=C(O)CSc1c(Cl)c(=O)oc2ccc(Cl)cc12	F
Cc1cc2c(cc1C)NC1=C(N2)OC(c2ccc(C3OC4=C(Nc5cc(C)c(C)cc5N4)C3=O)cc2)C1=O (stereo not given)	F
Cc1ccc2ccccc2[n+]1CC(=O)c1ccc2c(c1)OCO2	F
[Mn+2].[NH-]CC(=O)NC(Cc1ccccc1)C(=O)O.[NH-]CC(=O)NC(Cc1ccccc1)C(=O)O (stereo not given)	F
O=C(Cc1cccc(CC(=O)c2ccccc2)n1)c1ccccc1	F
CS(=O)(=O)OC1COCC1OS(C)(=O)=O (stereo not given)	F
CCS(=O)(=O)CC(C)O (stereo not given)	F
OCc1ccncc1	F
CCOC(=O)c1c2c(nc3c1CCCC3)CCCC2	F
CCOC(=O)/C(=C\c1cccc(F)c1)C(C)=O	F
NNC(=O)C(CSC(c1ccccc1)(c1ccccc1)c1ccccc1)NC(=O)OCc1ccccc1 (stereo not given)	T
C=CCNC(=S)N/C=C(\C#N)c1nc2ccccc2s1	F
CC1=NN(C(=O)c2ccccc2)C(=O)C1N=Nc1ccc([N+](=O)[O-])cc1 (stereo not given)	F
COC(=O)/C(=C\c1ccccc1N)c1cc2c(cc1Br)OCO2	F
COCC(=O)c1ccc(C#N)cc1	F
CC(=O)Nc1ccc(CCc2ccc(NC(C)=O)cc2)cc1	F
C#CCN(C)Cc1cc(OC)c(OC)c(OC)c1	F
C=CCOC(=O)C1CCCCC1C(=O)OCC=C (stereo not given)	F
O=C1C(=O)c2ccccc2C(O)=C1Br	F
COC(=O)C(NC(=O)c1ccccc1)C(c1c(O)cc(O)cc1O)P(=O)(OC)OC (stereo not given)	F
